System: Septoria nodorum
experiment: Test C: wheat glume blotch, preventive spray on wheat seedlings, visual disease rating
reported.conditions: 200 ppm; 100 = 100 % disease control, 0 = no disease control relative to controls
attribute.measured: Test C disease control rating (%)
Report the figure in % without appending any unit label.

See these solved cases before continuing.
CN1OC(C)(c2cccnc2)CC1c1ccccc1Cl (centres unmarked) [Compound 92]	0
COc1cc(Br)ccc1C1CC(C)(c2cccnc2)ON1C (centres unmarked) [Compound 86]	0
CN1OC(C)(c2cccnc2)CC1c1ccccc1Br (centres unmarked) [Compound 66]	0
COc1ccc(C2CC(C)(c3cccnc3)ON2C)c2ccccc12 (mixture of isomers)	0
CN1OC(C)(c2cccnc2)CC1c1ccc(Cl)c(Cl)c1 (centres unmarked) [Compound 5]	0

Using the record for CN1OC(C)(c2cccnc2)CC1c1ccc(-c2ccccc2)cc1 (racemic) [Compound 12] , report its Test C disease control rating.
82

Using the record for CN(C)c1ccc(C2CC(C)(c3cccnc3)ON2C)c2ccccc12 (mixture of isomers) , report its Test C disease control rating.
0

Using the record for CN1OC(C)(c2cccnc2)CC1c1ccccc1I (mixture of isomers) , report its Test C disease control rating.
0

Using the record for CN1OC(C)(c2cccnc2)CC1c1cccc(Cl)c1 (centres unmarked) [Compound 76] , report its Test C disease control rating.
0

Using the record for CN1OC(C)(c2cccnc2)CC1c1ccc(Br)cc1 (racemic) , report its Test C disease control rating.
100

Using the record for CN1OC(C)(c2cccnc2)CC1c1ccc(Oc2ccc(F)cc2)cc1 (racemic) [Compound 19] , report its Test C disease control rating.
99

Using the record for CN1OC(C)(c2cccnc2)CC1c1ccc(Br)cc1Br (centres unmarked) [Compound 84] , report its Test C disease control rating.
60

Using the record for CN1OC(C)(c2cccnc2)CC1c1ccccc1F (centres unmarked) [Compound 79] , report its Test C disease control rating.
22

Using the record for CN1OC(C)(c2cccnc2)CC1c1ccc(Cl)c(Cl)c1 (centres unmarked) [Compound 6] , report its Test C disease control rating.
0

Using the record for CN1OC(C)(c2cccnc2)CC1c1ccc(I)cc1 (racemic) [Compound 16] , report its Test C disease control rating.
95

Using the record for CN1OC(C)(c2cccnc2)CC1c1ccc(-c2ccccc2)cc1 (racemic) [Compound 11] , report its Test C disease control rating.
97

Using the record for CN1OC(C)(c2cccnc2)CC1c1cccc(F)c1 (centres unmarked) , report its Test C disease control rating.
0

Using the record for CN1OC(c2cccnc2)(C(F)(F)F)CC1c1ccc(-c2ccccc2)cc1 (racemic) [Compound 24] , report its Test C disease control rating.
0

Using the record for CN1OC(C)(c2cccnc2)CC1c1cccc(Cl)c1 (centres unmarked) [Compound 77] , report its Test C disease control rating.
0

Using the record for CN1OC(C)(c2cccnc2)CC1c1ccc(F)c(F)c1 (centres unmarked) [Compound 81] , report its Test C disease control rating.
0

---

Tested on: Septoria tritici
experiment: Test D: wheat leaf blotch, preventive spray on wheat seedlings, visual disease rating
Format: in vivo
reported.conditions: 40 ppm (marked *); 100 = 100 % disease control, 0 = no disease control relative to controls
Marks after values point to notes of the source that are not given here.
Recorded measurements of Test D disease control rating, one per entry

See these solved cases before continuing.
CN1OC(C)(c2cccnc2)CC1c1ccc(-c2cccs2)cc1 (centres unmarked) [Compound 55]	93* %
Cc1cc(C)n(-c2ccc(C3CC(C)(c4cccnc4)ON3C)cc2)n1 (centres unmarked) [Compound 50]	73* %
CN1O[C@](C)(c2cccnc2)C[C@@H]1c1ccc(-n2cc(Br)cn2)cc1 (relative stereo)	99* %
CN1OC(C)(c2cccnc2)CC1c1ccc(-n2cc(Br)cn2)cc1 (centres unmarked)	77* %
CN1OC(c2cccnc2)(C(F)(F)F)CC1c1ccc(-n2ccc(C(F)(F)F)n2)cc1 (centres unmarked) [Compound 44]	89* %
CN1OC(C)(c2cccnc2)CC1c1ccc(-n2nc(C(F)(F)F)cc2C(F)(F)F)cc1 (centres unmarked) [Compound 58]	91* %
CN1OC(C)(c2cccnc2)CC1c1ccc(-n2nc(C(F)(F)F)cc2-c2ccccn2)cc1 (centres unmarked) [Compound 70]	54* %
Cc1ccc(-c2ccc([C@H]3C[C@@](C)(c4cccnc4)ON3C)cc2)cc1 (relative stereo)	92* %

Using the record for CN1OC(C)(c2cccnc2)CC1c1ccc(-n2ccc(-c3cccs3)n2)cc1 (centres unmarked) [Compound 46] , report its Test D disease control rating.
62* %

Using the record for CN1OC(C)(c2cccnc2)CC1c1ccc(-n2cccn2)cc1 (centres unmarked) [Compound 34] , report its Test D disease control rating.
88* %

Using the record for CN1O[C@@](C)(c2cnccn2)C[C@@H]1c1ccc(-c2ccccc2)cc1 (relative stereo) , report its Test D disease control rating.
97* %

Using the record for CN1OC(C)(c2cccnc2)CC1c1ccc(-n2nc(C(F)(F)F)cc2C(F)(F)F)cc1 (centres unmarked) [Compound 59] , report its Test D disease control rating.
2* %

Using the record for CN1OC(c2cccnc2)(C(F)(F)F)CC1c1ccc(-n2ccc(C(F)(F)F)n2)cc1 (centres unmarked) [Compound 45] , report its Test D disease control rating.
52* %

Using the record for CN1OC(c2cccnc2)(C(F)(F)F)CC1c1ccc(Br)cc1 (racemic) , report its Test D disease control rating.
76* %

Using the record for CN1OC(c2cccnc2)CC1c1ccc(-n2ccc(C(F)(F)F)n2)cc1 (centres unmarked) , report its Test D disease control rating.
93* %

Using the record for Cc1ccn(-c2ccc(C3CC(C)(c4cccnc4)ON3C)cc2)n1 (centres unmarked) [Compound 43] , report its Test D disease control rating.
79* %

Using the record for CN1O[C@](C)(c2cccnc2)C[C@@H]1c1ccc(-n2ccc(C(F)(F)F)n2)cc1 (relative stereo) , report its Test D disease control rating.
99* %

---

Recorded measurements of Test D disease control rating, one per entry
Test system: Septoria tritici
experiment: Test D: wheat leaf blotch, preventive spray on wheat seedlings, visual disease rating
Assay type: in vivo
reported.conditions: 40 ppm (marked *); 100 = 100 % disease control, 0 = no disease control relative to controls
Marks after values point to notes of the source that are not given here.

See these solved cases before continuing.
Cc1cc(C)n(-c2ccc(C3CC(C)(c4cccnc4)ON3C)cc2)n1 (stereo not shown) [Compound 51]	32* %
Cc1ccc(-c2ccc(C3CC(c4cccnc4)(C(F)(F)F)ON3C)cc2)cc1 (racemic) [Compound 25]	86* %
Cc1cccc(-c2ccc(C3CC(c4cccnc4)(C(F)(F)F)ON3C)cc2)c1C (racemic) [Compound 31]	50* %

Attention now turns to another entry.
Using the record for CN1O[C@@](C)(c2cccnc2)C[C@@H]1c1ccc(-n2ccc(C(F)(F)F)n2)cc1 (relative stereo) [Compound 36] , report its Test D disease control rating.
73* %

---

System: Septoria tritici
experiment: Test D: wheat leaf blotch, preventive spray on wheat seedlings, visual disease rating
Type: in vivo
reported.conditions: 40 ppm (marked *); 100 = 100 % disease control, 0 = no disease control relative to controls
Description: A dash (−) indicates no test results.
Marks after values point to notes of the source that are not given here.
Recorded measurements of Test D disease control rating, one per entry

CN1O[C@@](c2cccnc2)(C(F)(F)F)C[C@@H]1c1ccc(I)cc1 (relative stereo)	95* %

Using the record for CN1OC(C)(c2cccnc2)CC1c1ccc(-n2cc(I)cn2)cc1 (stereo not drawn) [Compound 57] , report its Test D disease control rating.
57* %

Using the record for Cc1ccc(-c2ccc(C3CC(c4cccnc4)(C(F)(F)F)ON3C)cc2)cc1 (racemic) [Compound 26] , report its Test D disease control rating.
75* %

---

Tested on: Plasmopara viticola
experiment: Test I: grape downy mildew, spray on grape seedlings after inoculation, visual disease rating
reported.conditions: 200 ppm; 100 = 100 % disease control, 0 = no disease control relative to controls
Recorded measurements of Test I disease control rating, one per entry
Report the figure in % without appending any unit label.

CN1OC(C)(c2cccnc2)CC1c1ccc(Br)cc1 (racemic)	0
CN1OC(C)(c2cccnc2)CC1c1ccc(I)cc1 (racemic) [Compound 15]	0
Cc1cccc(-c2ccc(C3CC(c4cccnc4)(C(F)(F)F)ON3C)cc2)c1C (racemic) [Compound 32]	9
CN1O[C@](C)(c2cccnc2)C[C@@H]1c1ccc(Cl)cc1 (relative stereo)	0

Attention now turns to another entry.
Using the record for CN1OC(c2cccnc2)(C(F)(F)F)CC1c1ccc(Br)cc1 (racemic) , report its Test I disease control rating.
58

---

Recorded measurements of Test C disease control rating, one per entry
Tested on: Septoria nodorum
experiment: Test C: wheat glume blotch, preventive spray on wheat seedlings, visual disease rating
reported.conditions: 200 ppm; 100 = 100 % disease control, 0 = no disease control relative to controls
Report the figure in % without appending any unit label.

CN1O[C@](C)(c2cccnc2)C[C@@H]1c1ccc(Cl)cc1 (relative stereo)	100
CN1OC(C)(c2cccnc2)CC1c1ccc(Br)cc1F (stereo not drawn)	78

Using the record for CN1OC(C)(c2cccnc2)CC1c1cccc2c1OC(F)(F)O2 (stereo not drawn) [Compound 91] , report its Test C disease control rating.
0
